target: KRAS G13C (Homo sapiens, UniProt P01116+P62937, G13C); test: Disruption of BRAF RBD interaction with Ras (FRET / MOA assay, with Cyclophilin A); type: biochemical; conditions: KRAS G13C; read-out: KRAS G13C FRET data IC50
Sequence (P01116 1-169 isoform P01116-2 G13C): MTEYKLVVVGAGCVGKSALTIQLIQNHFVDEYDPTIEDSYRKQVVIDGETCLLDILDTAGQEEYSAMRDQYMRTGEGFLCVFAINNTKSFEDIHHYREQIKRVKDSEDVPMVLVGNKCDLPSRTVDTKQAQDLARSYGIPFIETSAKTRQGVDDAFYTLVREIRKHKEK
Sequence (P62937 whole entry): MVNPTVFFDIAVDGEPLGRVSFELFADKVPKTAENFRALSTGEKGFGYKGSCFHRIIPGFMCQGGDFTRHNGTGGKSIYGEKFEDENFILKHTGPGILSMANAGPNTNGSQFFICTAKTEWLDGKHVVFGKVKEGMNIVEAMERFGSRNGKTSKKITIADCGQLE
pIC50: −log10 of the molar value.
Quantity measured: pIC50

Worked cases, pIC50 given:
Compound: C=CC(=O)N1CCC(C(=O)N(C)[C@H](C(=O)N[C@H]2Cc3cc(O)cc(c3)-c3ccc4c(c3)c(c(-c3ccccc3CCOC)n4CC)CC(C)(C)COC(=O)[C@@H]3CCCN(N3)C2=O)C(C)C)CC1 [Example A014]
pIC50: 5.00 to 6.00
--
Compound: C=CC(=O)N1CCOC2(CCN(C(=O)N(C)[C@H](C(=O)N[C@H]3Cc4nc(n(C)n4)-c4ccc5c(c4)c(c(-c4cccnc4[C@H](C)OC)n5CC(F)(F)F)CC(C)(C)COC(=O)C4CCCN(N4)C3=O)C(C)C)CC2)C1 (some centres unmarked) [Example A606]
pIC50: 7.00 to 8.00

Provide value of pIC50 for this record tested with KRAS G13C (Homo sapiens, UniProt P01116+P62937, G13C): C=CC(=O)N1CC2(CCN([C@H](C(=O)N[C@H]3Cc4cc(O)cc(c4)-c4ccc5c(c4)c(c(-c4ccccc4CCOC)n5CC)CC(C)(C)COC(=O)[C@@H]4CCCN(N4)C3=O)C(C)C)C2=O)C1 [Example A031]
7.00 to 8.00

Entry C=CC(=O)N1CC2(CCN2C(=O)N(C)[C@H](C(=O)N[C@H]2Cc3nc(n(C)n3)-c3ccc4c(c3)c(c(-c3cccnc3[C@H](C)OC)n4CC)CC(C)(C)COC(=O)C3CCCN(N3)C2=O)C(C)C)C1 (some centres unmarked) [Example A612] please
6.00 to 7.00

Can you handle C=CC(=O)N1C[C@H](C)[C@H](C(=O)N(C)[C@H](C(=O)N[C@H]2Cc3cc(O)cc(c3)-c3ccc4c(c3)c(c(-c3ccccc3CCOC)n4CC)CC(C)(C)COC(=O)[C@@H]3CCCN(N3)C2=O)C(C)C)C1 [Example A041] next?
5.00 to 6.00

Now try C=CC(=O)N1CC[C@H](C(=O)N(C)[C@H](C(=O)N[C@H]2C[C@H]3CN(CCCO3)c3ccc4c(c3)c(c(-c3cccnc3[C@H](C)OC)n4CC)CC(C)(C)COC(=O)[C@@H]3CCCN(N3)C2=O)C(C)C)C1 (racemic) [Example A405] .
< 5.00

###

# IC50 per entry
target: NRAS Q61R (Homo sapiens, UniProt P01111+P62937, Q61R); experiment: Disruption of BRAF RBD interaction with Ras (FRET / MOA assay, with Cyclophilin A); assay type: biochemical; conditions: NRAS Q61R; read-out: NRAS Q61R FRET data IC50
Sequence (P01111 whole entry Q61R, one chain of several): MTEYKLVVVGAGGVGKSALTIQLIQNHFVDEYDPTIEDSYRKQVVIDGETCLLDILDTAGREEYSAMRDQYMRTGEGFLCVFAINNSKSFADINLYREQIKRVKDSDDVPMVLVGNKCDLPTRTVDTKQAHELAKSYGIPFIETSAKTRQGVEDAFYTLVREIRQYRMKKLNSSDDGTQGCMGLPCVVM

Sample records with IC50:
Molecule: CCn1c(-c2cccnc2[C@H](C)OC)c2c3cc(ccc31)-c1csc(n1)C[C@H](NC(=O)[C@@H](F)COC1CN(C(=O)C#CC(C)(C)N(C)C)C1)C(=O)N1CCCC(N1)C(=O)OCC(C)(C)C2 (stereo partly drawn) [Example A626]
Measured value: 1000 to 10000 nM
//
Molecule: CCn1c(-c2cc(N3CCN(C)CC3)cnc2[C@H](C)OC)c2c3cc(ccc31)-c1csc(n1)C[C@H](NC(=O)[C@H](C1CCCC1)N(C)C(=O)N1CCC1)C(=O)N1CCC[C@H](N1)C(=O)OCC(C)(C)C2 (atropisomer, axis not shown) [Example A529]
Measured value: 10 to 100 nM
//
Molecule: C=CC(=O)N1CCO[C@H]2CN(C(=O)N(C)[C@H](C(=O)N[C@H]3Cc4cccc(n4)-c4ccc5c(c4)c(c(-c4cccnc4[C@H](C)OC)n5CC)CC(C)(C)COC(=O)C4CCCN(N4)C3=O)C(C)C)C[C@H]21 (stereo partly drawn) [Example A597]
Measured value: 100 to 1000 nM

Form field - read-out: IC50; system: NRAS Q61R (Homo sapiens, UniProt P01111+P62937, Q61R); submitted item: CCn1c(-c2cc(N3CCN(C)CC3)cnc2[C@H](C)OC)c2c3cc(ccc31)-c1csc(n1)C[C@H](NC(C)=O)C(=O)N1CCC[C@H](N1)C(=O)OCC(C)(C)C2 (atropisomer, axis not shown) [Example A340]
> 10000 nM

Check CCn1c(-c2cccnc2[C@H](C)OC)c2c3cc(ccc31)-c1csc(n1)C[C@H](NC(=O)[C@H](C(C)C)N(C)C(=O)N1CC([C@H](C)CO)C1)C(=O)N1CCC[C@H](N1)C(=O)OCC(C)(C)C2 (atropisomer, axis not shown) [Example A478] too.
100 to 1000 nM

###

Target: KRAS G13C (Homo sapiens, UniProt P01116+P62937, G13C)
Assay: Disruption of BRAF RBD interaction with Ras (FRET / MOA assay, with Cyclophilin A)
Assay type: biochemical
Conditions: read-out: KRAS G13C FRET data, IC50
Description: This protocol may also be executed substituting other Ras proteins or nucleotides. The purpose of this biochemical assay was to measure the ability of test compounds to facilitate ternary complex formation between a nucleotide-loaded K-Ras isoform and Cyclophilin A; the resulting ternary complex disrupts binding to a BRAF^RBD construct, inhibiting K-Ras signaling through a RAF effector. Data is reported as IC50 values. […]
Quantity measured: IC50

Compound: CCn1c(-c2cccnc2[C@H](C)OC)c2c3cc(ccc31)-c1csc(n1)C[C@H](NC(=O)[C@H](C(C)C)N(C)C(=O)N1CCCOCC1)C(=O)N1CCC[C@H](N1)C(=O)OCC(C)(C)C2 (atropisomer, axis not shown) [Example A335]
Study system: KRAS G13C (Homo sapiens, UniProt P01116+P62937, G13C)
IC50: 100 to 1000 nM
--
Compound: CCn1c(-c2cc(N3CCN(C)CC3)cnc2[C@H](C)OC)c2c3cc(ccc31)-c1cccc(c1)C[C@H](NC(=O)[C@H](C(C)C)N(C)C(=O)[C@@H]1OCC[C@@H]1c1ccccc1)C(=O)N1CCC[C@H](N1)C(=O)OCC(C)(C)C2 (atropisomer, axis not shown) [Example A562]
Study system: KRAS G13C (Homo sapiens, UniProt P01116+P62937, G13C)
IC50: 10 to 100 nM

GET /values?readout=IC50&item= CCn1c(-c2cccnc2COC)c2c3cc(ccc31)-c1cc(O)cc(c1)C[C@H](NC(=O)[C@H](C(C)C)N(C)C(=O)[C@H](N)CCCNC(=N)N)C(=O)N1CCC[C@H](N1)C(=O)OCC(C)(C)C2 [Example A48]
100 to 1000 nM

###

target: NRAS G12C (Homo sapiens, UniProt P01111+P62937, G12C); assay: Disruption of BRAF RBD interaction with Ras (FRET / MOA assay, with Cyclophilin A); type: biochemical; conditions: NRAS G12C; read-out: NRAS G12C FRET data IC50
Sequence (P01111 whole entry G12C, one chain of several): as the sequence (P01111 whole entry Q61R, one chain of several) above, with G12C, R61Q counted along it
Reported IC50 values for the following compounds.

Compound: C=CC(=O)N(C)CCN(C)C(=O)N(C)[C@H](C(=O)N[C@H]1Cc2nc(cs2)-c2ccc3c(c2)c(c(-c2cccnc2[C@H](C)OCC)n3CC)CC(C)(C)COC(=O)[C@@H]2CCCN(N2)C1=O)C(C)C
Measured value: 10 to 100 nM
//
Compound: CCn1c(-c2cccnc2[C@H](C)OC)c2c3cc(ccc31)-c1csc(n1)C[C@H](NC(=O)[C@H](C(C)C)N(C)C(=O)N1CC(N(C)C)C1)C(=O)N1CCC[C@H](N1)C(=O)OCC(C)(C)C2 (racemic)
Measured value: 100 to 1000 nM

# lookup: IC50 of CCn1c(-c2cccnc2COC)c2c3cc(ccc31)-c1cc(O)cc(c1)C[C@H](NC(=O)[C@@H](C(C)C)N(C)C(=O)[C@H]1CCN(C(=O)C#CC(C)N3CCOCC3)C1)C(=O)N1CCC[C@H](N1)C(=O)OCC(C)(C)C2 (some centres unmarked)
10 to 100 nM

How about CCn1c(-c2cccnc2[C@H](C)OC)c2c3cc(ccc31)-c1csc(n1)C[C@H](NC(=O)[C@H](C(C)C)N(C)C(=O)N1C[C@@H]3CN(C)C[C@@H]31)C(=O)N1CCC[C@H](N1)C(=O)OCC(C)(C)C2 (atropisomer, axis not shown) ?
1000 to 10000 nM

Proceed to CCn1c(-c2cccnc2[C@H](C)OC)c2c3cc(ccc31)-c1csc(n1)C[C@H](NC(=O)[C@H](C(C)C)N(C)C(=O)N1CCO[C@@H](C)C1)C(=O)N1CCC[C@H](N1)C(=O)OCC(C)(C)C2 (atropisomer, axis not shown)
10 to 100 nM

Would you kindly repeat that for `CCn1c(-c2cccnc2[C@H](C)OC)c2c3cc(ccc31)-c1cccc(c1)C[C@H](NC(=O)[C@H](C(C)C)N(C)C(=O)[C@H]1CCN(CCO)C1)C(=O)N1CCC[C@H](N1)C(=O)OCC(C)(C)C2` ?
1000 to 10000 nM

Next compound: CCn1c(-c2cccnc2[C@H](C)OC)c2c3cc(ccc31)-c1csc(n1)C[C@H](NC(=O)[C@H](C(C)C)N(C)C(=O)N1CC(N(C)S(C)(=O)=O)C1)C(=O)N1CCC[C@H](N1)C(=O)OCC(C)(C)C2 (atropisomer, axis not shown)
10 to 100 nM

And what about the compound CCn1c(-c2cccnc2[C@H](C)OC)c2c3cc(ccc31)-c1cc(O)cc(c1)C[C@H](NC(=O)[C@H](C(C)C)N(C)C(=O)C1(C#N)CC1)C(=O)N1CCC[C@H](N1)C(=O)OCC(C)(C)C2 (racemic) ?
10 to 100 nM
